test: small-molecule binders of probe aLefty1, primary screen, biochemical, small-molecule microarray, 635/667 nm fluorescence (AID 1153); settings: higher = more signal;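 further: score merges spot fluorescence with signal-to-noise ratio from the scanned slide images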

Compound	composite z-score
C[C@@H]1CC[C@H]2C(=O)O[C@@H](CN=[N+]=[N-])CN2[C@H]1c1ccc(Br)cc1	-0.35
CCOC(=O)[C@H](CC(C)C)NC(=O)CCC1CC(OC(=O)NCCc2ccc(F)cc2)CC2(CCCC(COC(=O)NCCOC)O2)O1 (some centres undefined)	-0.198
CCOC(=O)CCN1C(=O)[C@H]2[C@H]3[C@H](O)[C@H](O)CC(=NNC(=O)OCC)[C@H]3CC[C@H]2C1=O	-0.0611
CCN1C(=O)[C@H]2[C@H]3[C@H](O)[C@H](O)CC(=NOC[C@@H](O)[C@H]4O[C@@H]5OC(C)(C)O[C@@H]5[C@H]4O)[C@@H]3CC[C@H]2C1=O	0.0445
